Each recorded value in this set is attributed to paper PMC9352680.

systemName: T1, PUF4 RNA-binding domain (Saccharomyces cerevisiae, UniProt P25339 537-888)
T1 sequence: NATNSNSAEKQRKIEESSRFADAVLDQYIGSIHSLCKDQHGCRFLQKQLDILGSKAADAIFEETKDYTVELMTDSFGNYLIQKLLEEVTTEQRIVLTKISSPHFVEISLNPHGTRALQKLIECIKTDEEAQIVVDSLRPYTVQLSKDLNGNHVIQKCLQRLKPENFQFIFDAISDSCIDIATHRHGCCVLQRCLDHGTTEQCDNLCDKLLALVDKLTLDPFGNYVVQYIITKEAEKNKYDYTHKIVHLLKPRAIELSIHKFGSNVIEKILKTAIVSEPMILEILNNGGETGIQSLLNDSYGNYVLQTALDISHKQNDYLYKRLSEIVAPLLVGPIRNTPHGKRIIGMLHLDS
testSummary: Mg; RNA-MaP; 20 mM Na-HEPES pH 7.4, 30 mM KOAc, 0.75 mM MgCl2, 0.1% Tween-20, 5% glycerol, 0.1 mg/mL BSA, 2 mM DTT; 25 C; 0.0125-409.6 nM protein
conditionContext: tags: N-His6-TEV cleaved; C-SNAP kept, Cy3B-labelled; label: tethered on chip by stalled RNA polymerase
Measured pKd of individual entries
For clarity, pKd is expressed as the negative log10 of concentration in mol/L.

Record excerpt, results attached:
>>> quantitativereadout("UCUCUUUGUAUGGUUCUCUU (ssRNA) [Ic_S1_P3E.1_K3.1_C3.1_H3.1_A3.1_[A6G]_F3.1_[T7G]_[A8T]_T3.1]")
6.29
>>> quantitativereadout("Ib_S2_P4E.1_K4.1_C4.1_H4.1_A4.1_[T5A]_F4.1_[A9G]_T4.1 (ssRNA) RNA: UUUGAUUAAUAUGAUAUCGUUCUUUCUUGUAAAUUGUUCUUUCUCGAUAUCAUAUUAAUCUUU")
8.04

Q: Specify pKd for UCUCUUUGUAUUAUCCUCUCUU (ssRNA) [Ib_S1_P5E.1_K5.1_C5.1_H5.1_A5.1_F5.1_[T9C]_[A10C]_T5.1] and stop.
A: 7.57
